Origin of measurements: the RNAGym collection of RNA variant scans (doi:10.7554/elife.90254)

B1: LINE1-full (parent)
chain: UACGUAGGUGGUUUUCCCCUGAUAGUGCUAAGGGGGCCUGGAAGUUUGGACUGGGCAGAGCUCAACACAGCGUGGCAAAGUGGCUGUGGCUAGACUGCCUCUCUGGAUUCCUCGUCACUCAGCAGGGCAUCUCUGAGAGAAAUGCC

variants of: B1; experiment: self-cleavage, relative activity (ratio to wild type); higher = more cleavage; in vitro, sequencing; the parent is a self-cleaving ribozyme
Would you mind labelling by self-cleavage? At or over 1 is condition met, under is condition not met.

Solved cases (3 shown):
polymerSequence: UACGUAGGUGGUUUUCCCCUGUUAGUGCUAAGGGGGCCUGGAAGUUUGGACUGGGCAGAGCUCAACACAGCGUGGCUAAGUGGCUGUGGCUAGACUGCCUCUCUGGAUUCCUCGUCACUCAGCAGGGCAUCUCUGAGAGAAAUGCC [A22U A77U]
labelValue: condition not met

polymerSequence: UACGUAGGUGGCUUUCCCCUGAUAGUGCUAAGGGGGCCUGGAAGUUUGGACUGGGCAGAGCUCAACACAGCGUGGCAAAGUGGCUGUGGCUAGACUGCCUCUCUGGAUUCCUCGUCACUCAGCAGGGCAUCUCUUAGAGAAAUGCC [U12C G135U]
labelValue: condition met

polymerSequence: UACGUAGGUGGUUUUCCCCUGAUAGUGCUAAGGGGGCCUGGAAGUUUGAACUGGGCAGAGCUCAACGCAGCGUGGCAAAGUGGCUGUGGCUAGACUGCCUCUCUGGAUUCCUCGUCACUCAGCAGGGCAUCUCUGAGAGAAAUGCC [G49A A67G]
labelValue: condition not met

Decide: is the reported value of self-cleavage for UACGUAGGUGGUUUUCCCCUGAUAGUGCUAAGGGGGCCUGGAAGUUUGGACUGGGCAGAGCUCAACACAGCGUGGCAAAGUGGCUGUGGCUAGACUGCCUCCCUGGGUUCCUCGUCACUCAGCAGGGCAUCUCUGAGAGAAAUGCC [U102C A107G] equal to or greater than 1?
condition met

Decide: is the reported value of self-cleavage for UGCGUAGGUGGUUUUCCCCUGAUAGUGCUAAGGGGGCCUGGAAGUUUGGACUGGGCAGAGCUCUACACAGCGUGGCAAAGUGGCUGUGGCUAGACUGCCUCUCUGGAUUCCUCGUCACUCAGCAGGGCAUCUCUGAGAGAAAUGCC [A2G A64U] equal to or greater than 1?
condition not met

Decide: is the reported value of self-cleavage for UACGUAGAUGGUUUUCCCCUGAUAGUGCUGAGGGGGCCUGGAAGUUUGGACUGGGCAGAGCUCAACACAGCGUGGCAAAGUGGCUGUGGCUAGACUGCCUCUCUGGAUUCCUCGUCACUCAGCAGGGCAUCUCUGAGAGAAAUGCC [G8A A30G] equal to or greater than 1?
condition not met

Decide: is the reported value of self-cleavage for UACGUAGGUGGUUUUCCCCUGAUAGUGCUAAGGGGGCCUGGAAGUUUGGACUGGGCAGAGCUCAACACAGCGUGGCAAAGUGGCUGUGGCUAGACCGCCUCUCUGGAUUCCUCGUCACUCAGCAGGGCAUCUCUGAGAGAAAUGCC [U96C] equal to or greater than 1?
condition not met

Decide: is the reported value of self-cleavage for UACGUAGGUGGUUUUCCCCUGAUAGUGCUAAGGGGGCCUGGAAGGUUGGACUGGCCAGAGCUCAACACAGCGUGGCAAAGUGGCUGUGGCUAGACUGCCUCUCUGGAUUCCUCGUCACUCAGCAGGGCAUCUCUGAGAGAAAUGCC [U45G G55C] equal to or greater than 1?
condition not met

Decide: is the reported value of self-cleavage for UACGUAGGUGGUUUUCCCCUGAUAGUGCUAAGGGGGCCUGGAAGUUUGGACUGGGCAGAGCUCAACACAGCGUGGCAAAGUGGCUGUGGCUAGACUGCCUCUCUGGAUUCCUCGUCACUCAGCAGGGCAUCUCUGGGAGUAAUGCC [A136G A140U] equal to or greater than 1?
condition met

Decide: is the reported value of self-cleavage for UACGUAGGUGGUUUUCCCCUGAUAGUGCUAAGUGGGCCUGGAAGUUUGGACUGGGCAGAGCUCAACACAGCGUGGCAAAGUGGCUGUGGCUAGACUGCCUCUCUGGAUUCCUCGUCACUCAGCAGGGCAUCUCUGGGAGAAAUGCC [G33U A136G] equal to or greater than 1?
condition met

Decide: is the reported value of self-cleavage for UACGUAGGUGGUUUUCCCCUGAUAGUGCUAAGGGGGCCUGGAAGUUUGGACUGGGCAGAGCUCAACACAGCGCGGCAAAGUGGCUGUGGCUAGACUGCCUCUCUGGGUUCCUCGUCACUCAGCAGGGCAUCUCUGAGAGAAAUGCC [U73C A107G] equal to or greater than 1?
condition met
